test: clinical
measurementConditions: human, in vivo, 5 mg
Procedure: The duration of the trial was approximately 9 weeks, which includes a screening period (up to 4 weeks), a treatment period (18 days) and a safety follow-up period (2 weeks). After signing the informed consent form (ICF), participants enter the screening period (Day −28 to −1). […] The time of the meal consumed at the site during days of IMP administration was recorded, as was the dose and dosing time of IMP (as appropriate) relative to sampling times. […]
assayMetric: AUC(0-t) (ng·h/mL)
Report as a plain number; the unit ng·h/mL is understood.

Please report the recorded AUC(0-t) for "CO[C@H]1C[C@@H]2CC[C@@H](C)[C@@](O)(O2)C(=O)C(=O)N2CCCC[C@H]2C(=O)O[C@H]([C@H](C)C[C@@H]2CC[C@@H](OCCO)[C@H](OC)C2)CC(=O)[C@H](C)/C=C(\C)[C@@H](O)[C@@H](OC)C(=O)[C@H](C)C[C@H](C)/C=C/C=C/C=C/1C" . 95

* * *

test: Steady state AUC of CBD by daily dose
measurementConditions: human, in vivo, 25 mg/kg/day
Source text: In some embodiments, the AUCt1-t2 is reported as a geometric mean (% coefficient of variation).
assayMetric: AUC

AUC lookup needed for "C=C(C)[C@@H]1CCC(C)=C[C@H]1c1c(O)cc(CCCCC)cc1O" , thanks. 2520 ng·h/mL

* * *

test: clinical
measurementConditions: human, in vivo, 5 mg
Method: The duration of the trial was approximately 9 weeks, which includes a screening period (up to 4 weeks), a treatment period (18 days) and a safety follow-up period (2 weeks). After signing the informed consent form (ICF), participants enter the screening period (Day −28 to −1). […] The time of the meal consumed at the site during days of IMP administration was recorded, as was the dose and dosing time of IMP (as appropriate) relative to sampling times. […]
assayMetric: Cmax (ng/mL)
The reply should be a number in ng/mL, with the unit left off.

Would you kindly share the measured Cmax for "CO[C@H]1C[C@@H]2CC[C@@H](C)[C@@](O)(O2)C(=O)C(=O)N2CCCC[C@H]2C(=O)O[C@H]([C@H](C)C[C@@H]2CC[C@@H](OCCO)[C@H](OC)C2)CC(=O)[C@H](C)/C=C(\C)[C@@H](O)[C@@H](OC)C(=O)[C@H](C)C[C@H](C)/C=C/C=C/C=C/1C" ? 18

* * *

test: clinical
measurementConditions: human, in vivo, 5 mg
assayMetric: AUC(0-inf) (ng·h/mL)
Report only the number, with the unit ng·h/mL understood.

Item under review: "CO[C@H]1C[C@@H]2CC[C@@H](C)[C@@](O)(O2)C(=O)C(=O)N2CCCC[C@H]2C(=O)O[C@H]([C@H](C)C[C@@H]2CC[C@@H](OCCO)[C@H](OC)C2)CC(=O)[C@H](C)/C=C(\C)[C@@H](O)[C@@H](OC)C(=O)[C@H](C)C[C@H](C)/C=C/C=C/C=C/1C" . Reported AUC(0-inf)? 216

* * *

test: Steady state AUC of CBD by daily dose
measurementConditions: human, in vivo, 20 mg/kg/day
assayMetric: AUC(0-t) (ng·h/mL)
Give a bare numeral; the unit ng·h/mL is implied.

Which value of AUC(0-t) has been reported for C=C(C)[C@@H]1CCC(C)=C[C@H]1c1c(O)cc(CCCCC)cc1O [CBD, Cannabidiol] in the records? 963
